Give pIC50 for every item shown.
molecular target: HLA-B*53:01; assay: IEDB peptide-MHC binding, purified MHC/competitive/radioactivity; bounds were set here for any values at or beyond the usual limits of such assays; details: source organism: Bordetella pertussis
When answering, recall that pIC50 equals minus log10 of the concentration in mol/L, and write that number alone.

Need pIC50 of `HSLYASYEY` , thanks.
4.37

Need pIC50 of `LVYYESIAY` , thanks.
4.92
